experiment: Cytotoxicity against human 293T cells expressing Gluc assessed as inhibition of cell proliferation at 20 uM after 24 hrs by CCK8 assay relative to control; format: cell-based; conditions: 293T (HEK-293T) cells expressing Gluc
The following compounds are shown together with reported inhibition at 24 h, 20 µM values.
quantity-kind: inhibition at 24 h, 20 µM (%)

- C[C@H]1O[C@@H](O[C@H]2CC[C@@]3(C)[C@@H](CC[C@]4(C)[C@@H]3C=CC3=C5CC(C)(C)CC[C@]5(CO)[C@@H](O)C[C@]34C)[C@]2(C)CO)[C@H](O)[C@@H](O)[C@H]1O: 0
- C[C@H]1O[C@@H](O[C@H]2CC[C@]3(C)[C@H]4C=C[C@]56OC[C@@]7(CCC(C)(C)C[C@H]75)[C@@H](O)C[C@@]6(C)[C@]4(C)CC[C@H]3C2(C)C)[C@H](O)[C@@H](O[C@@H]2O[C@H](CO)[C@@H](O)[C@H](O)[C@H]2O)[C@H]1O: 44.8
- CO[C@@H]1C=C2[C@@H]3CC(C)(C)CCC3=C(O)C(=O)[C@@]2(C)[C@]2(C)CC[C@H]3[C@](C)(CO)[C@@H](O[C@@H]4O[C@H](C)[C@H](O)[C@H](O[C@@H]5O[C@H](CO)[C@@H](O)[C@H](O)[C@H]5O)[C@H]4O)CC[C@]3(C)[C@@H]12: 0
- C[C@H]1O[C@@H](O[C@H]2CC[C@@]3(C)[C@@H](CC[C@]4(C)[C@@H]3C=CC3=C5C[C@@](C)(CO)CC[C@]5(CO)[C@@H](O)C[C@]34C)[C@]2(C)CO)[C@H](O)[C@@H](O[C@@H]2O[C@H](CO)[C@@H](O)[C@H](O)[C@H]2O)[C@H]1O: 5.87
